target: T1, S1-Fc (SARS-CoV-2, UniProt P0DTC2 14-685); experiment: phage ELISA
T1 construct: also called S1 Fc fusion protein
PARAMETER_MEASURED: specificity ELISA, fold over background (fold over background)
// note: answer is a bare numeric in fold over background

Below, 5 binders whose answers are already recorded.
BINDER | specificity ELISA, fold over background, fold over background
variant 2-2 (antibody, V domains shown) VH: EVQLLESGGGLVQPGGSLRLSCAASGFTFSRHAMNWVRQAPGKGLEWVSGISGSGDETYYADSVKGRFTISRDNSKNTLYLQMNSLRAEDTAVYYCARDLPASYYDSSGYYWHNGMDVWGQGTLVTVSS VL: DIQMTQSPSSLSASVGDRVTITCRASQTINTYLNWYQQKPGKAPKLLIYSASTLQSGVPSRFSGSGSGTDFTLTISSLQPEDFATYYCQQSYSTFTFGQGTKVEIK | 4.7
variant 2-5 (antibody, V domains shown) VH: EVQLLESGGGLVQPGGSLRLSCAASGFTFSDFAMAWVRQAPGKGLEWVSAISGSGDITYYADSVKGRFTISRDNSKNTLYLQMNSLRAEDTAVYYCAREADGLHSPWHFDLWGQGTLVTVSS VL: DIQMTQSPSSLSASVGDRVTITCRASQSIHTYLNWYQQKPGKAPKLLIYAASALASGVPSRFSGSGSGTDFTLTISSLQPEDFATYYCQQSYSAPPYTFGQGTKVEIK | 24.3
variant 2-8 (antibody, V domains shown) VH: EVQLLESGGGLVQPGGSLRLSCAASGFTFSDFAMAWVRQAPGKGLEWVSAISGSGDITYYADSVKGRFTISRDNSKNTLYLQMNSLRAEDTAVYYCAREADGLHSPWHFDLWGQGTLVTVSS VL: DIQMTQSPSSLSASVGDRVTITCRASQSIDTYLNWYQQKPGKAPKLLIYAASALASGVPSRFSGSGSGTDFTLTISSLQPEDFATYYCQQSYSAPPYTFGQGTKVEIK | 5.4
variant 2-12 (antibody, V domains shown) VH: EVQLLESGGGLVQPGGSLRLSCAASGFTFSDYPMNWVRQAPGKGLEWVSTISGSGGITFYADSVKGRFTISRDNSKNTLYLQMNSLRAEDTAVYYCVRHDEYSFDYWGQGTLVTVSS VL: DIQMTQSPSSLSASVGDRVTITCRASQSIDNYLNWYQQKPGKAPKLLIYGVSALQSGVPSRFSGSGSGTDFTLTISSLQPEDFATYYCQQSHSAPPYFFGQGTKVEIK | 14.7
variant 2-4 (antibody, V domains shown) VH: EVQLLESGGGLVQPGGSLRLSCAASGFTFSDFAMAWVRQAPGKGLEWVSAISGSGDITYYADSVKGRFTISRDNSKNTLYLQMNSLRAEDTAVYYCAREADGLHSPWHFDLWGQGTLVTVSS VL: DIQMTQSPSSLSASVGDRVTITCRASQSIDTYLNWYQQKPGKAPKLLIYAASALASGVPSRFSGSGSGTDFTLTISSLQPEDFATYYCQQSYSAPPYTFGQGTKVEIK | 7.2

Attention now shifts to the item below.
Fill in specificity ELISA, fold over background for record variant 2-13 (antibody, V domains shown) VH: EVQLLESGGGLVQPGGSLRLSCAASGFTFSDYPMNWVRQAPGKGLEWVSAISGSGDNTYYADSVKGRFTISRDNSKNTLYLQMNSLRAEDTAVYYCVRHDEYSFDYWGQGTLVTVSS VL: DIQMTQSPSSLSASVGDRVTITCRASQSIDTYLNWYQQKPGKAPKLLIYGASALESGVPSRFSGSGSGTDFTLTISSLQPEDFATYYCQQSHSAPPYFFGQGTKVEIK
3.7
